Molecular target: human IgG Fc (Biotin-SP-ChromPure Human IgG, Fc fragment) (human, biotin (Biotin-SP))
Assay: SPR
Conditions: both partners purified
Measured attribute: pKd
One number for each entry, as −log10 of the molar value.

Input: Form field: reported pKd of GECKGKGAKCSSISIHDAHCCTGSCRSGKC (designed binder) [recombinant Ig-CON-5 after TEV protease digestion]
Output: 8.00
